System: Staphylococcus aureus MW2 delta-mecA (mecA-)
protocol.notes: normalized GFP fluorescence (growth of mecA- strain) (fraction of control range); higher = more growth of mecA- strain
study.conditions: compound concentration: 150 uM; cefoxitin: subinhibitory; fluorescent label: GFP
In this section, each of the molecules is paired with its reported normalized GFP fluorescence.
// print number alone

1. CC(=O)OCC(=O)[C@@]1(OC(C)=O)[C@@H](C)C[C@H]2[C@@H]3C[C@H](F)C4=CC(=O)C=C[C@]4(C)[C@@]3(F)[C@@H](O)C[C@@]21C	0.256
2. COc1ccc(OC)c(C(O)CNC(=O)CN)c1 (configuration not stated)	0.301
3. Clc1ccccc1CN1CCc2sccc2C1	0.281

Find the measured normalized GFP fluorescence of `C#C[C@]1(O)CC[C@H]2[C@@H]3CCC4=CC(=O)CC[C@@H]4[C@H]3CC[C@@]21CC` and report it. 0.305

Find the measured normalized GFP fluorescence of `Cc1ccc(Nc2c(F)cccc2Cl)c(CC(=O)O)c1` and report it. 0.0553

Find the measured normalized GFP fluorescence of `Cc1nc(Nc2ncc(C(=O)Nc3c(C)cccc3Cl)s2)cc(N2CCN(CCO)CC2)n1` and report it. 0.0741

Find the measured normalized GFP fluorescence of `c1ccc2c(CC3=NCCN3)cccc2c1` and report it. 0.526

Find the measured normalized GFP fluorescence of `COc1ccc(-c2ccc3cc(C(=O)O)ccc3c2)cc1C12CC3CC(CC(C3)C1)C2` and report it. 0.582

Find the measured normalized GFP fluorescence of `NCCc1c[nH]cn1` and report it. 0.621

Find the measured normalized GFP fluorescence of CN1C2CCCC1CC(NC(=O)c1nn(C)c3ccccc13)C2 (configuration not stated) and report it. 0.718

Find the measured normalized GFP fluorescence of `O=C(/C=C/c1cccc(S(=O)(=O)Nc2ccccc2)c1)NO` and report it. 0.364

Find the measured normalized GFP fluorescence of `Fc1ccc([C@@H]2CCNC[C@H]2COc2ccc3c(c2)OCO3)cc1` and report it. -0.0171
